- TEST TARGET: fibrinogen receptor, glycoprotein IIb/IIIa (Homo sapiens, UniProt P05106+P08514)
- Sequence (P08514 32-887 limits assumed): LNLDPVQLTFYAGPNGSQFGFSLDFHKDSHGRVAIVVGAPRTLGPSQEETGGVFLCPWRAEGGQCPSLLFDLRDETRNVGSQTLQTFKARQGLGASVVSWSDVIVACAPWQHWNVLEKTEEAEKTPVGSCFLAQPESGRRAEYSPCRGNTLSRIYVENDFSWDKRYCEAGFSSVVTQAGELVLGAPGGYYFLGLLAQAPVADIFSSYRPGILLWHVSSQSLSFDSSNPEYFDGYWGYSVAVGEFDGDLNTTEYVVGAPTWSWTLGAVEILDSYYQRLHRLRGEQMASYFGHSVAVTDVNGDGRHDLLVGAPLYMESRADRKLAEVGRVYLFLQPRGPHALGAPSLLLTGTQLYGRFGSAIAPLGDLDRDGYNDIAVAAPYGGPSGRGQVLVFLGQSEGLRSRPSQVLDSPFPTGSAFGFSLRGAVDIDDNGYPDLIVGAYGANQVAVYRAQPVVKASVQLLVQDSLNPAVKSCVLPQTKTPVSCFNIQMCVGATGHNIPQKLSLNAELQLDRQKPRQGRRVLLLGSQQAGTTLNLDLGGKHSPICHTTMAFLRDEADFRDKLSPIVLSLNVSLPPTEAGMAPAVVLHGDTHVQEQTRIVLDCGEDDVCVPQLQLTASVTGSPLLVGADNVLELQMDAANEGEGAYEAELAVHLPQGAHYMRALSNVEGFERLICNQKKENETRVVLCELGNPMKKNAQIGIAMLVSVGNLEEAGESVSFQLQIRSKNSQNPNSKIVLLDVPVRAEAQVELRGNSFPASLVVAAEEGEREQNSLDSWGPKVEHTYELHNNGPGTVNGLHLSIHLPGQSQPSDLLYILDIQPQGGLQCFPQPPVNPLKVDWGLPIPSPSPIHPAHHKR
- Sequence (P08514 891-1039 partner limits assumed): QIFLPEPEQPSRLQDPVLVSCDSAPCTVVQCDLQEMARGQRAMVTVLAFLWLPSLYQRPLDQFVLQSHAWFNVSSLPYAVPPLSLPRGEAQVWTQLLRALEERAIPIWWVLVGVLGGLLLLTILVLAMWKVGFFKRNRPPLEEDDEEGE
- Sequence (P05106 27-788): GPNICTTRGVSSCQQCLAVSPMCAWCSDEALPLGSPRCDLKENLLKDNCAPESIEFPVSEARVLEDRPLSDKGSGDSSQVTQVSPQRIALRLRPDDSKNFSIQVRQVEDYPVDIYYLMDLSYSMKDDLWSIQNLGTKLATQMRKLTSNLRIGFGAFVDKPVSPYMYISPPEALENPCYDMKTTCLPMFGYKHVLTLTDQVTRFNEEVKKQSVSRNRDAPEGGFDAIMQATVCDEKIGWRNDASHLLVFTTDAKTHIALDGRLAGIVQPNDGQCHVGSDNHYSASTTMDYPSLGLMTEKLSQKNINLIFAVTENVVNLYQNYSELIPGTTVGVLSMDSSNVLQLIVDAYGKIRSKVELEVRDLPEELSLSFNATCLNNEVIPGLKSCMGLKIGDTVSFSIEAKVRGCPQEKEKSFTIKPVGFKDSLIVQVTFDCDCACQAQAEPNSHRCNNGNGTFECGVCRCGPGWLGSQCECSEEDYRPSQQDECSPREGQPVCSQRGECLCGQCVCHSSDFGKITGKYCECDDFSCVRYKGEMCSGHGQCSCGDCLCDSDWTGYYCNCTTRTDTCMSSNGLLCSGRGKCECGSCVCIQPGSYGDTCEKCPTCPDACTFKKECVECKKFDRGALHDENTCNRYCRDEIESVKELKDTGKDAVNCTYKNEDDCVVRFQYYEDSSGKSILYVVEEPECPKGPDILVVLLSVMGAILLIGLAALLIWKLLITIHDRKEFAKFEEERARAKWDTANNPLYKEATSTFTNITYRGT
- MEASUREMENT DESCRIPTION: Inhibition of fibrinogen binding to immobilized glycoprotein IIb/IIIa (ELISA)
- MEASUREMENT CONDITIONS: concentration required to inhibit binding of fibrinogen to the immobilized receptor from human blood platelets by 50%
Where a SMILES comes first, the peptide text is derived from it. [ ]: non-standard residue; d: D form. Gly(N-2-aminoethyl) = NCCNCC(=O)O
Quick reference: IC50 of the listed items.
QUANTITY MEASURED: IC50

compound="CC(C)[C@H](NC(=O)[C@H](CC(=O)O)NC(=O)CNC(=O)C(Cc1ccc(NC(=N)N)cc1)NC(=O)OC(C)(C)C)C(=O)O (mixture of isomers)" reading="0.08 µM"
compound="CC(C)[C@H](NC(=O)[C@H](CC(=O)O)NC(=O)CNC(=O)CCc1ccc(C(=N)N)cc1)C(=O)O [Example 24, (p-amidinohydrocinnamoyl)-Gly-Asp-Val-OH]" reading="0.035 µM"
compound=CC(C)[C@H](NC(=O)[C@H](CC(=O)O)NC(=O)CNC(=O)CCc1ccc(CN)cc1)C(=O)O reading="0.21 µM"
compound="CC[C@H](C)[C@H](NC(=O)[C@H](CC(=O)O)NC(=O)CNC(=O)[C@H](CCCNC(=N)N)NC(=O)CNCCN)C(=O)O [Example 11, Aeg Arg- Gly-Asp-Ile-OH] (H-[Gly(N-2-aminoethyl)]RGDI-OH)" reading="0.12 µM"
compound=N=C(N)c1ccc(CCC(=O)NCC(=O)N[C@@H](CC(=O)O)C(=O)N[C@@H](Cc2cccc3ccccc23)C(=O)O)cc1 reading="0.011 µM"
compound="CC(C)[C@H](NC(=O)[C@H](CC(=O)O)NC(=O)CNC(=O)[C@H](CCCNC1=NC2(O)CCCCC2(O)N1)NC(=O)OC(C)(C)C)C(=O)O (stereo partly drawn)" reading="0.054 µM"

Origin of measurements: patent US5663297A
